Target: T1, recombinant human RON SEMA and PSI domains (human, UniProt Q04912 25-571)
T1 construct: domain: SEMA+PSI; Commercial protein (R&D Systems); also called rhRON SEMA+PSI; hRON SEMA+PSI
Experiment: SPR, Ab captured on anti-human IgG Fc, 37 C, screening
quantityKind: koff (s⁻¹)
# unit: s⁻¹ | format: bare number

Past entries and their recorded results:
- binder: "Sh07F01-83 (antibody, human IgG1, kappa, V domains shown, Humanized, human IgG1/kappa: Sh07F01 Hv3-48 D28T T60A L63V E65G IgG1 + Sh07F01 Kv1-9 F1 Kappa) VH: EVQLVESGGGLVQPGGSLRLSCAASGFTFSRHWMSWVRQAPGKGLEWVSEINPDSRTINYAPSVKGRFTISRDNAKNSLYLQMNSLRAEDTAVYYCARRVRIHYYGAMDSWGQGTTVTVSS VL: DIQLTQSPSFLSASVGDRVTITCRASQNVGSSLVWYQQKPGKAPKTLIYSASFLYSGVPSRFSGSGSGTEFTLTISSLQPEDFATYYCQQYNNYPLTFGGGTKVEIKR"
  koff / s⁻¹: 0.0014
- binder: "Sh07F01-69 (antibody, human IgG1, kappa, V domains shown, Humanized, human IgG1/kappa: Sh07F01 Hv3-48 IgG1 + Sh07F01 Kv1-9 F1 Kappa) VH: EVQLVESGGGLVQPGGSLRLSCAASGFDFSRHWMSWVRQAPGKGLEWVSEINPDSRTINYTPSLKERFTISRDNAKNSLYLQMNSLRAEDTAVYYCARRVRIHYYGAMDSWGQGTTVTVSS VL: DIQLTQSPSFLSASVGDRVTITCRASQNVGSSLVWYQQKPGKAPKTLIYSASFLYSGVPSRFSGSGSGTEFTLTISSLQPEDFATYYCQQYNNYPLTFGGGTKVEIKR"
  koff / s⁻¹: 0.0012
- binder: "Sh29B06-23 (antibody, human IgG1, kappa, V domains shown, Humanized, human IgG1/kappa: Hu29B06 Hv4-59 IgG1 (CDR graft with back mutations) + Sh29B06 Kv2-28 Kappa) VH: QVQLQESGPGLVKPSETLSLTCTVSGDSITSGYWNWIRKPPGKKLEYMGYISYSGKTYYNPSLKSRITISRDTSKNQYSLKLSSVTAADTAVYYCARSKYDYAMDYWGQGTLVTVSS VL: DIVMTQSPLSLPVTPGEPASISCRASEIVDNFGISFMNWYLQKPGQSPQLLIYAASNQGSGVPDRFSGSGSGTDFTLKISRVEAEDVGVYYCQQSKEVPPTFGGGTKVEIKR"
  koff / s⁻¹: 0.00048
- binder: "Sh07F01-2 (antibody, human IgG1, kappa, V domains shown, also called Chimeric 07F01 C102S) VH: EVKLLESGGGLVQPGGSLKLSCAASGFDFSRHWMSWVRLAPGKGLEWIAEINPDSRTINYTPSLKEKFIISRDNAKNSLFLQMNRVRSEDTALYYCARRVRIHYYGAMDSWGQGTSVTVSS VL: DIVLTQSQKIVSTSVGARVSVTCKASQNVGSSLVWYQQKPGQSPKTLIYSASFRYSGVPDRFTGSGSGTDFTLTISNVQSEDLADYFCQQYNNYPLTFGAGTKLELKR"
  koff / s⁻¹: 0.00073
- binder: "Sh29B06-9 (antibody, human IgG1, kappa, V domains shown, Chimeric 29B06 Heavy IgG1 + Sh29B06 Kv2-28 Kappa) VH: EVQLQESGPSLVKPSQTLSLTCSVTGDSITSGYWNWIRKFPGNKLEYMGYISYSGKTYYNPSLKSRISITRDTSKNHYYLQLISVTAEDTATYYCARSKYDYAMDYWGQGTSVTVSS VL: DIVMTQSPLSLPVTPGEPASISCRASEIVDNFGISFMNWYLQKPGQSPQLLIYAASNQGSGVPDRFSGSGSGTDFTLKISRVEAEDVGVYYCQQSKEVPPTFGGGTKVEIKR"
  koff / s⁻¹: 0.00022

The record that follows has no koff shown yet.
IN: Query (binder): Sh07F01-62 (antibody, human IgG1, kappa, V domains shown, Humanized, human IgG1/kappa: Sh07F01 Hv3-48 D28T T60A L63V E65G IgG1 + HE L 07F01 Kv1-9 Kappa) VH: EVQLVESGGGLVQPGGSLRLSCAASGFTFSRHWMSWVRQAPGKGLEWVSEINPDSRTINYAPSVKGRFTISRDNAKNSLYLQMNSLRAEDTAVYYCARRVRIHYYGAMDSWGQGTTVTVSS VL: DIQLTQSQSFVSTSVGDRVTVTCRASQNVGSSLVWYQQKPGKSPKTLIYSASFLYSGVPSRFSGSGSGTEFTLTISSVQPEDFADYFCQQYNNYPLTFGGGTKVEIKR ; field requested: koff
OUT: 0.0014
